tested on: Perkinsus marinus PRA240; assay: ATP content (proliferation) relative to DMSO control; higher = more parasite growth (less inhibition); conditions: 20 µM; 4 days
reported-metric: ATP content (%)

compound	data-value
CCOc1cccc(C(=O)Nc2ccc(-c3nc4ccccc4[nH]3)cc2)c1	143
Cc1ccccc1OCCSc1nc2ccc(NC(=O)c3ccccc3)cc2s1	50.6
CCOc1cc(Cl)c(C(C)NC(=O)c2ccccc2)cc1OCC (centres undefined)	91.1
Cn1c(C(=O)c2cccc3ccccc23)nc2ccccc21	55.5
O=C(CCc1ccccc1)c1ccccc1OCC(O)CN1CCCCC1 (centres undefined)	62.3
CCOc1ccc2c(c1)CN(Cc1ccc(Cl)cc1)CO2	155
CCCCc1c(C)nc2c(OC)cccc2c1O	37.3
COc1ccc(Nc2cc(C)nc(NCc3ccccc3)n2)cc1	93.8
COCCNCC(O)Cn1c2ccc(Cl)cc2c2cc(Cl)ccc21 (centres undefined)	143
Nc1nc(Nc2cccc(F)c2)nc2ccccc12	26
CCOc1ccc(C2N(C)c3ccccc3N2C)cc1	131
Cc1ccc(CSCc2ccc(C(=O)NC3CC3)o2)cc1	54.8
CCN(CC)c1cc(C)c2cc(NC(=O)c3cccc(OC)c3)ccc2n1	74
O=C(Nc1cccc(-c2nc3ccccc3[nH]2)c1)c1cccc(NC(=O)c2ccco2)c1	126
CCOc1c(Br)cc(C2C(C(=O)OC)=CN(C)C=C2C(=O)OC)cc1OC	123
O=C1CC(O)(C(F)(F)C(F)(F)F)Oc2ccccc21 (centres undefined)	34.8
Cc1cc(NC(=O)c2ccc(-c3ccccc3)cc2)no1	69.1
CCOC(=O)C1=C(C)N=c2sc(=Cc3ccccc3O)c(=O)n2C1c1ccc(OC)c2ccccc12 (centres undefined)	196
COc1ccc(N2CCN(C(CNC(=O)CC(C)(C)C)c3ccc4c(c3)OCO4)CC2)cc1 (centres undefined)	211
CCOc1ccc(CN2CCN(CC(O)COc3ccc(OCC(O)CN4CCN(Cc5ccc(OCC)cc5)CC4)cc3)CC2)cc1 (centres undefined)	137
O=C(NCc1ccco1)C1CCN(S(=O)(=O)c2ccc(Cl)cc2)CC1	89.8
COc1ccccc1N1CCN(C(CNS(=O)(=O)c2ccc(Cl)cc2)c2cccnc2)CC1 (centres undefined)	111
CCN(CC)CCn1c(=N)n(CC(O)c2ccc(Cl)c(Cl)c2)c2ccccc21 (centres undefined)	110
Oc1ccccc1CN1CCC2(CCCN(Cc3ccccc3F)C2)C1 (centres undefined)	70.1
COc1ccc2c(c1)C1(Nc3ccccc3-c3nc4ccccc4n31)C(=O)N2 (centres undefined)	113
COc1cccc(Cn2c(Oc3ccccc3)nc3c2c(=O)n(C)c(=O)n3C)c1	106
COc1cccc(C(=O)NC(c2ccc(C)cc2)c2cc(Cl)c3cccnc3c2O)c1 (centres undefined)	39.5
COc1cccc(C2(C)Nc3ccccc3-c3nc4ccccc4n32)c1 (centres undefined)	144
COc1ccccc1N1C(=N)SC(=Cc2ccc(OCc3ccccc3F)cc2)C1=O	57.5
CC(C)CNC(=O)c1c(N)n(CCc2ccccc2F)c2nc3ccccc3nc12	90.4
O=C(NCc1ccco1)C1CCN(S(=O)(=O)c2ccc(Br)cc2)CC1	147
Cc1cc(N2CCN(C3CCCC3)CC2)n2c(nc3ccccc32)c1C#N	161
Cc1ccc(Nc2nc(N)c3ccccc3n2)cc1Cl	4.69
Cc1ccc(F)cc1NC(=O)c1cc(Cl)ccc1Nc1ccccc1	113
CC(C)=CCN1CCC(C(=O)Nc2ccc(-c3nc4ccccc4[nH]3)cc2)CC1	81.5
CC(C)(C)CC(C)(C)NCC(O)COc1ccc2c(c1)CCC2 (centres undefined)	114
FC(F)(F)c1cccc(Nc2nc3ccccc3nc2Nc2cccc(C(F)(F)F)c2)c1	155
CCN1CCN(c2c(C(=O)c3ccccc3)cnc3cc(OC)c(OC)cc23)CC1	199
CCCCCCC(O)(c1ccc(F)cc1)C(CN1CCOCC1)c1ccccc1 (centres undefined)	127
O=c1nc(C=Cc2ccc(Cl)cc2)oc2ccccc12	22.2
O=C(NC1CCCCC1)C(c1cccs1)N(CCc1ccccc1)C(=O)c1ccco1 (centres undefined)	101
CC1(c2ccccc2)Nc2ccccc2-c2nc3ccccc3n21 (centres undefined)	109
c1ccc(-c2ccc(-c3nc4ccccc4[nH]3)cc2)cc1	16.5
COc1ccc2nc(C)cc(Nc3ccc(Cl)cc3)c2c1	103
